Test system: HCV replicon cells
Experiment: Cell-based HCV replicon assay (replicon RNA level by real time PCR, Taqman)
Settings: Hepatitis C virus, 72 h, HCV replicon cells, harvested day 3, replicon RNA by real time PCR; reported as range class; read-out: EC90 (μM) range
observed property: EC90

# EC90 lookup, item "Cc1nc(NCCF)nc(N[C@@H]2C[C@H](CO)[C@@H](O)[C@H]2O)c1-c1nc2ccccc2s1" 0.5 to 5 µM

Name the reported EC90 value associated with the compound "CCOc1ccc2nc(-c3c(Cl)nc(N)nc3N[C@@H]3C[C@H](CO)[C@@H](O)[C@H]3O)sc2c1" < 0.5 µM

So what's the measured EC90 for this one? "Nc1nc(Cl)c(-c2cc3cc(-c4ccccc4)ccc3o2)c(N[C@@H]2C[C@H](CO)[C@@H](O)[C@H]2O)n1" > 5 µM

Would you mind telling me what EC90 value was observed for "Nc1nc(Cl)c(-c2cc3ccncc3o2)c(N[C@@H]2C[C@H](CO)[C@@H](O)[C@H]2O)n1" ? < 0.5 µM

Requested read-out: EC90. Entry: "CCN(CC)c1nc(Cl)c(-c2nc3ccccc3s2)c(N[C@@H]2C[C@H](CO)[C@@H](O)[C@H]2O)n1" 0.5 to 5 µM

So what does the record say about EC90 for "CNc1ccc2sc(-c3c(Cl)nc(N)nc3N[C@@H]3C[C@H](CO)[C@@H](O)[C@H]3O)nc2c1" ? < 0.5 µM

Given "Cc1ccc2oc(-c3c(Cl)nc(N)nc3N[C@@H]3C[C@H](CO)[C@@H](O)[C@H]3O)nc2c1" , state its recorded EC90. > 5 µM
